TESTED_SYSTEM: T1, 2α PASB (HIF-2α PASB domain, 240-350) (UniProt Q99814 240-350, labelled with NT-647-NHS dye in MST; 15N (and 13C 15N) labelled in NMR)
T1 construct: range 240-350; also called PAS B domain of HIF-2α; not shown: His6 tag of vector pET28, then Met
T1 sequence (Q99814 240-350): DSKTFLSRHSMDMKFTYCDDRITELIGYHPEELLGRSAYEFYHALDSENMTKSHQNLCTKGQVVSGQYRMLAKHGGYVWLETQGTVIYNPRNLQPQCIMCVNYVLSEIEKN
PROTOCOL_DETAILS: MST, HIF-2α PASB domain
Non-standard residues stand in square brackets, D forms with d. Phe(4-NO2) = N[C@@H](Cc1ccc([N+](=O)[O-])cc1)C(=O)O; Phe(4-Cl) = N[C@@H](Cc1ccc(Cl)cc1)C(=O)O; Phe(4-F) = N[C@@H](Cc1ccc(F)cc1)C(=O)O; Cha = N[C@@H](CC1CCCCC1)C(=O)O
The entries below come with measured pKd values attached.
Scale: negative log10 of molar concentration, which is what pKd denotes.

Solved cases (2 shown):
Query: Output measured pKd for this item: cyclo(CRLLI[Phe(4-NO2)]) (also called CRLLIX where X = 4-NO2-F) [CRLLI(4-NO2-F)]
Response: 5.24

Query: Tell me measured pKd for CRLLIW (cyclic analogue of cyclo-CRLLIF) please.
Response: 5.02

Continuing:
Query: Please give measured pKd of the following entry: cyclo(CRLLI[Cha]) (also called CRLLIX where X = Cha) [CRLLI(Cha)]
Response: 5.25

Query: Please supply the value of reported pKd for the item cyclo(CRLLI[Phe(4-Cl)]) (also called CRLLIX where X = 4-Cl-F) [CRLLI(4-Cl-F)]
Response: 5.38

Query: Input cyclo(CRLLI[Phe(4-F)]) (also called CRLLIX where X = 4-F-F) [CRLLI(4-F-F)] , output reported pKd.
Response: 5.13

Query: Please look at this binder and report its pKd: CRLLIF (cyclic peptide (cyclo-, first amino acid joined to the last), One of the 4 cyclic peptide hits of the SICLOPPS screen; made by solid phase synthesis; also called CRLLIX where X = F) [cyclo-CRLLIF (SEQ ID NO 3)]
Response: 4.81
